# Measurement protocol: Permeability of compound by PAMPA at pH 7.4
# Format: ADME
Measured property: permeability (×10⁻⁶ cm/s)
Return type: number; implicit unit ×10⁻⁶ cm/s.

// known answers, use as guide
[
  {
    "Compound": "CS(=O)(=O)c1ccc(C(=O)OCC(=O)NC23CC4CC(CC(C4)C2)C3)cc1[N+](=O)[O-]",
    "Measured property": "permeability",
    "Unit name": "×10⁻⁶ cm/s",
    "Result number": 167
  },
  {
    "Compound": "Cc1nc(-c2ccc(S(C)(=O)=O)c([N+](=O)[O-])c2)sc1C(=O)N1CC2(C)CC1CC(C)(C)C2 (stereo not drawn)",
    "Measured property": "permeability",
    "Unit name": "×10⁻⁶ cm/s",
    "Result number": 1420
  },
  {
    "Compound": "CC1(C)CC2CC(C)(CN2C(=O)c2sc(-c3ccc(S(C)(=O)=O)c([N+](=O)[O-])c3)nc2C(F)(F)F)C1 (stereo not drawn)",
    "Measured property": "permeability",
    "Unit name": "×10⁻⁶ cm/s",
    "Result number": 8
  },
  {
    "Compound": "CS(=O)(=O)c1ccc(-c2nc(C(F)(F)F)c(C(=O)N3CCc4ccccc4C3)s2)cc1[N+](=O)[O-]",
    "Measured property": "permeability",
    "Unit name": "×10⁻⁶ cm/s",
    "Result number": 84
  }
]

Lab book: permeability of CN(Cc1cccc(F)c1)C(=O)c1cnc(-c2ccc(S(C)(=O)=O)c([N+](=O)[O-])c2)s1 noted as 1030

Lab book: permeability of Cc1nc(-c2ccc(S(C)(=O)=O)c([N+](=O)[O-])c2)sc1C(=O)N1CCC(C)CC1 noted as 912

Lab book: permeability of CN(Cc1ccccc1)C(=O)c1sc(-c2ccc(S(C)(=O)=O)c([N+](=O)[O-])c2)nc1C(F)(F)F noted as 1500

Lab book: permeability of CS(=O)(=O)c1ccc(-c2ncc(C(=O)N3CCCCC3)s2)cc1[N+](=O)[O-] noted as 287
